# RANKL fold change cf wt per record follows
tested_on: T1, RANKL (human, UniProt O14788 140-317, limits assumed)
T1 construct: also called Rank ligand
T1 sequence (looked up): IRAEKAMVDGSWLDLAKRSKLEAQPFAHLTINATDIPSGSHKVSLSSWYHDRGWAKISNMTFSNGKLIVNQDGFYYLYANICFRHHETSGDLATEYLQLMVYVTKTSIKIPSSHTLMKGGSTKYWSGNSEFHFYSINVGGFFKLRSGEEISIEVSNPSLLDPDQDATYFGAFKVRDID
method: ELISA on coated RANKL, Fc-linked dimers; EC50 ratio to OPG(22-194).Fc wt; increase in binding (lower EC50)
Unit fold implied. Number only.

OVP I115D (Fc fusion, Tested as C-terminal Fc-linked dimer with FLAG tag, from HEK 293 EBNA cells; signal peptide 1-21 processed; not shown: human Fc domain of vector pAPEX-3.Fc; C-terminal FLAG tag) ETFPPKYLHYDEETSHQLLCDKCPPGTYLKQHCTAKWKTVCAPCPDHYYTDSWHTSDECLYCSPVCKELQYVKQECNRTHNRVCECKEGRYLEDEFCLKHRSCPPGFGVVQAGTPERNTVCKRCPDGFFSNETSSKAPCRKHTNCSVFGLLLTQKGNATHDNICSGNSESTQK = 1.5
OVP I115G (Fc fusion, Tested as C-terminal Fc-linked dimer with FLAG tag, from HEK 293 EBNA cells; signal peptide 1-21 processed; not shown: human Fc domain of vector pAPEX-3.Fc; C-terminal FLAG tag) ETFPPKYLHYDEETSHQLLCDKCPPGTYLKQHCTAKWKTVCAPCPDHYYTDSWHTSDECLYCSPVCKELQYVKQECNRTHNRVCECKEGRYLEGEFCLKHRSCPPGFGVVQAGTPERNTVCKRCPDGFFSNETSSKAPCRKHTNCSVFGLLLTQKGNATHDNICSGNSESTQK = 2.1
OVP I115L (Fc fusion, Tested as C-terminal Fc-linked dimer with FLAG tag, from HEK 293 EBNA cells; signal peptide 1-21 processed; not shown: human Fc domain of vector pAPEX-3.Fc; C-terminal FLAG tag) ETFPPKYLHYDEETSHQLLCDKCPPGTYLKQHCTAKWKTVCAPCPDHYYTDSWHTSDECLYCSPVCKELQYVKQECNRTHNRVCECKEGRYLELEFCLKHRSCPPGFGVVQAGTPERNTVCKRCPDGFFSNETSSKAPCRKHTNCSVFGLLLTQKGNATHDNICSGNSESTQK = 1.75

**Query** # get_value(readout='RANKL fold change cf wt', item= OVP I115M, F128L (Fc fusion, Tested as C-terminal Fc-linked dimer with FLAG tag, from HEK 293 EBNA cells; signal peptide 1-21 processed; also called I115M plus: F128L; not shown: human Fc domain of vector pAPEX-3.Fc; C-terminal FLAG tag) ETFPPKYLHYDEETSHQLLCDKCPPGTYLKQHCTAKWKTVCAPCPDHYYTDSWHTSDECLYCSPVCKELQYVKQECNRTHNRVCECKEGRYLEMEFCLKHRSCPPGLGVVQAGTPERNTVCKRCPDGFFSNETSSKAPCRKHTNCSVFGLLLTQKGNATHDNICSGNSESTQK )
**Result** 1.2

**Query** # get_value(readout='RANKL fold change cf wt', item= OVP I115M, F128A (Fc fusion, Tested as C-terminal Fc-linked dimer with FLAG tag, from HEK 293 EBNA cells; signal peptide 1-21 processed; also called I115M plus: F128A; not shown: human Fc domain of vector pAPEX-3.Fc; C-terminal FLAG tag) ETFPPKYLHYDEETSHQLLCDKCPPGTYLKQHCTAKWKTVCAPCPDHYYTDSWHTSDECLYCSPVCKELQYVKQECNRTHNRVCECKEGRYLEMEFCLKHRSCPPGAGVVQAGTPERNTVCKRCPDGFFSNETSSKAPCRKHTNCSVFGLLLTQKGNATHDNICSGNSESTQK )
**Result** 1.2

This collection of values is drawn from patent US20060189528A1.
